# assayedSystem: recombinant PIM-1 (Homo sapiens, UniProt P11309)
# Sequence (P11309 whole entry): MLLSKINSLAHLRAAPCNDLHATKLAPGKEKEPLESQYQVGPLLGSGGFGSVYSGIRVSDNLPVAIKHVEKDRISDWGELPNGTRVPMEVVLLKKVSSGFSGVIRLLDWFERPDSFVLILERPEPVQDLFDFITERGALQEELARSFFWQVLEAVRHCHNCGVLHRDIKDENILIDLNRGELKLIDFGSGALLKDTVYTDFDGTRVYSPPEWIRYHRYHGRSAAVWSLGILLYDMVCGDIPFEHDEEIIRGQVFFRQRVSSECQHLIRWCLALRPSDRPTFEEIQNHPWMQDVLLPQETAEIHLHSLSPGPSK
# experimentDescription: PIM-1 kinase assay
# Type: biochemical
# condition: 15 μM ATP; read-out: PIM1: IC50 (15 μM ATP)
measureName: pIC50
# reply with the number alone; pIC50 is -log10 of concentration in mol/L

* COc1cccc(Nc2nc3cc(C(=O)O)ccc3n3cccc23)c1 | 6.45
* O=C(O)c1ccc2c(c1)nc(Nc1ccccc1)c1cccn12 | 6.89
* Fc1ccc(Nc2nc3cc(-c4nnn[nH]4)ccc3n3cccc23)cc1 | 6.44
* O=C(O)c1ccc2c(c1)nc(NCCn1cccc1)c1cccn12 | 6.26

Requested read-out: pIC50. Entry: c1ccc(Nc2nc3cc(-c4nnn[nH]4)ccc3n3cccc23)cc1 6.79

Requested read-out: pIC50. Entry: NC(=O)c1cc(F)cc(Nc2nc3cc(C(=O)O)ccc3n3cccc23)c1 6.64

Requested read-out: pIC50. Entry: Fc1cccc(Nc2nc3cc(-c4nnn[nH]4)ccc3n3cccc23)c1 6.54

Requested read-out: pIC50. Entry: Cc1ccccc1Nc1nc2cc(-c3nnn[nH]3)ccc2n2cccc12 6.17

Requested read-out: pIC50. Entry: Clc1ccccc1Nc1nc2cc(-c3nnn[nH]3)ccc2n2cccc12 6.33

Requested read-out: pIC50. Entry: CN(C)CCNc1nc2cc(-c3nnn[nH]3)ccc2n2cccc12 6.31

Requested read-out: pIC50. Entry: Clc1ccc(Nc2nc3cc(-c4nnn[nH]4)ccc3n3cccc23)cc1 6.24

Requested read-out: pIC50. Entry: N#Cc1cccc(Nc2nc3cc(C(=O)O)ccc3n3cccc23)c1 6.94
